system: SF-268 CNS; assay: NCI tumour cell line growth inhibition, 48 h
TEST_READOUT: TGI

-- ask Name the recorded TGI for COc1ccc(Cn2c(C)nc3c2C(=O)c2ccccc2C3=O)cc1 .
-- reply 68.1 µM

-- ask Name the recorded TGI for CCOC(=O)CCCn1nnc(C(=O)OCC)c1C(=O)OCC .
-- reply > 100 µM

-- ask Name the recorded TGI for COc1cccc([C@H]2CC(=O)c3cc4c(cc3N2)OCO4)c1 .
-- reply > 100 µM

-- ask Name the recorded TGI for O=[N+]([O-])c1ccc(Nc2ccccc2-c2ccccc2)c2nonc12 .
-- reply 36.8 µM

-- ask Name the recorded TGI for Nc1nc(N)c2ncn(CC3CCC(CO)C3)c2n1 (stereo unspecified) .
-- reply > 100 µM

-- ask Name the recorded TGI for CC(C)(C)OC(=O)CN1CCNCCNCC1 .
-- reply > 100 µM

Values from PubChem BioAssay (NCI)
